assayed_target: human orexin-2 (hOX2) receptors (Homo sapiens, UniProt O43614)
Construct: expressed in transfected cells
Sequence (O43614 whole entry): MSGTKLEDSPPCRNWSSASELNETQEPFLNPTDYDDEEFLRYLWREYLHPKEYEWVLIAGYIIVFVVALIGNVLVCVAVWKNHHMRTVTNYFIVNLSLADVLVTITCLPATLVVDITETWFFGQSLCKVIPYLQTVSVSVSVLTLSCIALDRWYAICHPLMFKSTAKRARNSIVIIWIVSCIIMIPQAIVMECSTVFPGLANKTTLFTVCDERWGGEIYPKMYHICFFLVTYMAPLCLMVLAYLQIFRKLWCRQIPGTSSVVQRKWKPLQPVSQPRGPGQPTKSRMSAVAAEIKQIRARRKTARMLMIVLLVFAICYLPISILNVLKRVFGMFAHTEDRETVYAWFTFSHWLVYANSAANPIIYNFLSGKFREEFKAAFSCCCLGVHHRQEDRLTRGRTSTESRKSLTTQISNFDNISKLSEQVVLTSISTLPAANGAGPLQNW
measurement_description: Intracellular Ca2+ mobilization assay (FLIPR), antagonism of orexin-A
Format: cell-based
stated_conditions: CHO(dHFr−) cells stably expressing hOX2; orexin-A at EC80 as agonist; Kb=IC50/(1+[A]/EC50); read-out: Kb (μM) OX2R (human)
Structures can show the parent of a compound that is named as a salt.
The threshold is inclusive: Kb of exactly 0.01 µM counts as 1.0; values below receive 0.0.

1. CNC(=O)[C@H](NC(CCc1ccc(C(F)(F)F)cc1)c1ccc(OC)c(OC)c1)c1ccccc1 (single isomer, unassigned) [Example 7] ... 1.0
2. CNC(=O)[C@H](N[C@H](CCc1ccc(C(F)(F)F)cc1)c1ccc(OC(F)F)c(OC(F)F)c1)c1ccccc1 (racemic) ... 1.0
3. CNC(=O)[C@H](N[C@@H](CCc1ccc(C(F)(F)F)nc1)c1cccc(OC(F)F)c1)c1ccccc1 (racemic) ... 1.0
4. CNC(=O)[C@H](N[C@@H](CCc1ccc(C(F)(F)F)nc1)c1ccc(F)c(OC)c1)c1ccc(F)cc1 (racemic) ... 1.0
5. CNC(=O)C(NC(CCc1ccc(C)nc1)c1ccc(F)c(C)c1)c1ccccc1 (mixture of isomers) ... 1.0
6. CNC(=O)[C@@H](N[C@@H](CCc1ccc(C(F)(F)F)cc1)c1ccc(OC)c(OC)c1)c1ccc(Cl)cc1 (racemic) ... 0.0
7. CNC(=O)[C@H](N[C@@H](CCc1ccc(Cl)cc1)c1ccc2c(c1)CCO2)c1ccccc1 (racemic) [Example 38] ... 0.0
8. CNC(=O)[C@H](N[C@@H](CCc1ccc(C(F)(F)F)nc1)c1ccc(OC)c(OC)c1)c1ccccc1 (racemic) [Example 171] ... 0.0
9. COc1ccc(C(CCc2ccc(C(F)(F)F)cc2)N[C@@H](C(=O)NCC2CC2)c2ccccc2)cc1OC (single isomer, unassigned) ... 1.0
10. CNC(=O)[C@H](N[C@@H](CCc1ccc(OC)cc1)c1cccnc1OC)c1ccccc1 (racemic) ... 1.0
11. CNC(=O)[C@H](N[C@@H](CCc1ccc(Cl)nc1)c1ccc(OC(F)F)c(OC(F)F)c1)c1ccccc1 (racemic) ... 1.0
12. CNC(=O)[C@H](N[C@@H](CCc1ccc(Cl)cc1)c1ccc(OC)c(OC)c1)c1ccccc1 (single isomer, unassigned) [Example 140] ... 0.0
13. CNC(=O)[C@H](N[C@@H](CCc1ccc(C(F)(F)F)cc1)c1sc(C)nc1C)c1ccc(F)cc1 ... 0.0
14. CNC(=O)[C@H](N[C@@H](CCc1cccc(C(F)(F)F)c1)c1ccc(OC)c(OC)c1)c1ccccc1 (racemic) ... 0.0
15. CNC(=O)[C@H](N[C@@H](CCc1ccc(C(F)(F)F)cc1)c1cc(C)ccc1F)c1ccccc1 ... 1.0
16. CNC(=O)[C@H](N[C@@H](CCc1ccc(Cl)cc1)c1ccc2c(c1)CCO2)c1ccccc1 [Example 96] ... 0.0
17. CNC(=O)[C@H](N[C@H](CCc1ccc(C(F)(F)F)nc1)c1ccc(C)c(OC)c1)c1ccccc1 (racemic) ... 0.0
18. CNC(=O)[C@H](N[C@@H](CCc1ccc(C(F)(F)F)cc1)c1cccc(OC)c1)c1ccccc1 [Example 221, hydrochloride] ... 0.0
19. CNC(=O)[C@H](N[C@@H](CCc1ccc(C(F)(F)F)cc1)c1cc(C)ccc1F)c1ccc(F)cc1 ... 1.0
20. CNC(=O)[C@H](N[C@H](CCc1ccc(C(F)(F)F)nc1)c1ccc(Cl)c(C)c1)c1ccccc1 (racemic) ... 1.0
21. CNC(=O)[C@H](N[C@@H](CCc1ccc(C(F)(F)F)cc1)c1cccc(OC(F)F)c1)c1ccccc1 ... 0.0
22. CNC(=O)[C@H](N[C@@H](CCc1ccc(C(F)(F)F)nc1)c1ccc2c(c1)CCCC2)c1ccc(F)cc1 (racemic) [Example 57] ... 0.0
23. CNC(=O)[C@H](N[C@@H](CCc1ccc(Cl)cc1)c1ccc(OC)c(OC)c1)c1ccccc1 [Example 163] ... 0.0
24. CNC(=O)[C@H](N[C@@H](CCc1ccc(C(F)(F)F)nc1)c1ccc(Cl)c(OC)c1)c1ccc(Cl)cc1 (racemic) ... 0.0
25. CNC(=O)[C@H](N[C@@H](CCc1ccc(C(F)(F)F)cc1)c1ccc2c(c1)OCCN2C)c1ccccc1 [Example 115] ... 1.0
